- Test System: Proteasome component C5 (Homo sapiens) (UniProt P20618)
- Sequence (whole entry): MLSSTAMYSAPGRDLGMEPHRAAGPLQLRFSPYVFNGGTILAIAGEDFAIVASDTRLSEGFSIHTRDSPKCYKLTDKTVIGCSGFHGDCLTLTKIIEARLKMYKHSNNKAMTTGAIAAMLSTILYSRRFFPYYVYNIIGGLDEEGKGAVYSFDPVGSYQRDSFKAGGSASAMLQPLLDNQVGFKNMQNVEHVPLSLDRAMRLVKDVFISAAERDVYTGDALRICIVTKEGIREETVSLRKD
- Protocol Description: Inhibition of human 20S constitutive proteasome beta-1 at 50 uM using Z-LLE-betaNA as substrate incubated for 15 mins measured for 45 mins by fluorescence assay relative to control
Calls of active or inactive are those of the source. The calls are words filed in the database; no cut-off is given here.
Reported Metric: inhibition

C[C@H](NC(=O)[C@H](Cc1ccc(OCc2ccccc2)cc1)NC(=O)OC(C)(C)C)C(=O)N[C@@H](C[C@@]1(O)C(=O)N(C)c2ccccc21)C(=O)NCc1ccccc1 ... > 85%
C[C@H](NC(=O)[C@H](Cc1ccc(O)cc1)NC(=O)OC(C)(C)C)C(=O)N[C@@H](C[C@]1(O)C(=O)Nc2ccccc21)C(=O)NCc1ccccc1 ... inactive
C[C@H](NC(=O)[C@H](Cc1ccc(OCc2ccccc2)cc1)NC(=O)OC(C)(C)C)C(=O)N[C@@H](C[C@]1(O)C(=O)N(C)c2ccccc21)C(=O)NCc1ccccc1 ... > 85%
COC(=O)CCNC(=O)[C@H](C[C@]1(O)C(=O)Nc2ccccc21)NC(=O)[C@H](C)NC(=O)[C@H](Cc1ccc(OCc2ccccc2)cc1)NC(=O)OC(C)(C)C ... 15%
NC(=O)C[C@H](NC(=O)OCc1ccccc1)C(=O)N[C@@H](C[C@]1(O)C(=O)Nc2ccccc21)C(=O)NCc1ccccc1 ... inactive

Lab note: next compound to report on.
# get_value(readout='inhibition', item= C[C@H](NC(=O)[C@H](Cc1ccc(OCc2ccccc2)cc1)NC(=O)OC(C)(C)C)C(=O)N[C@@H](C[C@]1(O)C(=O)Nc2ccccc21)C(=O)NCCc1ccccc1 )
> 85%

====

inhibition reference
- Test System: Proteasome Macropain subunit (Homo sapiens)
- Protocol Description: Inhibition of human 20S constitutive proteasome beta-2 at 50 uM using BocLRR-AMC as substrate incubated for 15 mins measured for 45 mins by fluorescence assay relative to control

Example entries and their recorded answers appear below.
C[C@@H](NC(=O)[C@H](Cc1ccc(OCc2ccccc2)cc1)NC(=O)OC(C)(C)C)C(=O)N[C@@H](C[C@]1(O)C(=O)Nc2ccccc21)C(=O)NCc1ccccc1 ... > 85%
COC(=O)CCNC(=O)[C@H](C[C@]1(O)C(=O)Nc2ccccc21)NC(=O)[C@H](C)NC(=O)[C@H](Cc1ccc(OCc2ccccc2)cc1)NC(=O)OC(C)(C)C ... 14%
C[C@H](NC(=O)[C@H](Cc1ccc(OCc2ccccc2)cc1)NC(=O)OC(C)(C)C)C(=O)N[C@@H](C[C@]1(O)C(=O)N(C)c2ccccc21)C(=O)NCc1ccccc1 ... 19%

Give Proteasome Macropain subunit (Homo sapiens) inhibition for C[C@H](NC(=O)c1ccc(OCc2ccccc2)cc1)C(=O)N[C@@H](C[C@]1(O)C(=O)Nc2ccccc21)C(=O)NCc1ccccc1
> 85%

====

Below is a list of entries, each paired with its recorded pIC50 value.
- Test System: Proteasome subunit beta type-10 (Homo sapiens, UniProt P40306)
- Sequence (P40306 whole entry): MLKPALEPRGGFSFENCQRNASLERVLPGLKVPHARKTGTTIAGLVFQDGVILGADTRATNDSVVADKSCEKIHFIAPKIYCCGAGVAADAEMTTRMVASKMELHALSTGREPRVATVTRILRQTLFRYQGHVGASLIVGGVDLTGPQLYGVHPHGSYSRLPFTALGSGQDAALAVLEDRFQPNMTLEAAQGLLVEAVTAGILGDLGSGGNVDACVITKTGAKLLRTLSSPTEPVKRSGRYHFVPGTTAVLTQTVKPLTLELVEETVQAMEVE
- Protocol Description: Inhibition of human 20S immunoproteasome beta-2 using BocLRR-AMC as substrate incubated for 15 mins measured for 45 mins by fluorescence assay
Scale note: pIC50 = -log10(concentration in M).

Known pIC50 results, listed for orientation:
C[C@H](NC(=O)[C@H](Cc1ccc(OCc2ccccc2)cc1)NC(=O)OC(C)(C)C)C(=O)N[C@@H](C[C@]1(O)C(=O)Nc2ccccc21)C(=O)NCc1cccc2ccccc12 ... 5.57
C[C@@H](O)[C@@H](NC(=O)c1ccc(OCc2ccccc2)cc1)C(=O)N[C@@H](C[C@]1(O)C(=O)Nc2ccccc21)C(=O)NCc1ccccc1 ... 5.18
C[C@H](NC(=O)[C@H](Cc1ccc(OCc2ccccc2)cc1)NC(=O)OC(C)(C)C)C(=O)N[C@@H](C[C@]1(O)C(=O)Nc2ccccc21)C(=O)NCCC(=O)O ... 4.66
CC(C)(C)OC(=O)N[C@@H](Cc1ccc(OCc2ccccc2)cc1)C(=O)NCC(=O)N[C@@H](C[C@]1(O)C(=O)Nc2ccccc21)C(=O)NCc1ccccc1 ... 5.05
C[C@H](O)[C@@H](NC(=O)[C@H](Cc1ccc(OCc2ccccc2)cc1)NC(=O)OC(C)(C)C)C(=O)N[C@@H](C[C@]1(O)C(=O)Nc2ccccc21)C(=O)NCc1ccccc1 ... 5.24
COC(=O)CCNC(=O)[C@H](C[C@]1(O)C(=O)Nc2ccccc21)NC(=O)[C@H](C)NC(=O)[C@H](Cc1ccc(OCc2ccccc2)cc1)NC(=O)OC(C)(C)C ... 3.97
C[C@H](NC(=O)Cc1cccc(Oc2ccccc2)c1)C(=O)N[C@@H](C[C@]1(O)C(=O)Nc2ccccc21)C(=O)NCc1ccccc1 ... 4.84
C[C@H](NC(=O)[C@H](Cc1ccc(OCc2ccccc2)cc1)NC(=O)OC(C)(C)C)C(=O)N[C@@H](C[C@]1(O)C(=O)Nc2ccccc21)C(=O)NCC(C)(C)C ... 4.52
NCCCC[C@H](NC(=O)[C@@H](N)Cc1ccc(OCc2ccccc2)cc1)C(=O)N[C@@H](C[C@]1(O)C(=O)Nc2ccccc21)C(=O)NCc1ccccc1 ... 6.09
C[C@H](NC(=O)[C@H](Cc1ccc(OCc2ccccc2)cc1)NC(=O)OC(C)(C)C)C(=O)N[C@@H](C[C@]1(O)C(=O)Nc2ccccc21)C(=O)NCC1CCCCC1 ... 4.80

What measured pIC50 is associated with C[C@H](NC(=O)[C@@H](N)Cc1ccc(OCc2ccccc2)cc1)C(=O)N[C@@H](C[C@]1(O)C(=O)Nc2ccccc21)C(=O)NCc1ccccc1 on Proteasome subunit beta type-10 (Homo sapiens, UniProt P40306)?
4.57

Please give the result for C[C@@H](NC(=O)[C@H](Cc1ccc(OCc2ccccc2)cc1)NC(=O)OC(C)(C)C)C(=O)N[C@@H](C[C@]1(O)C(=O)Nc2ccccc21)C(=O)NCc1ccccc1 too.
4.67

Provenance of the data: ChEMBL document CHEMBL4251654
